Biological target: T1, naked peptide TDFYCEKNNV (human)
T1 peptide: TDFYCEKNNV
Assay: ELISA naked peptide; scFv 1 ug/mL; repI
Test Readout: OD450 (OD)
Express it in OD; write the number only.

# annotated cases, reported OD450 shown
CCR9_HUM2 scFv (humanized anti-CCR9 scFv, SEQ ID NO: 17 with C-terminal 6xHis tag) (scFv) scFv: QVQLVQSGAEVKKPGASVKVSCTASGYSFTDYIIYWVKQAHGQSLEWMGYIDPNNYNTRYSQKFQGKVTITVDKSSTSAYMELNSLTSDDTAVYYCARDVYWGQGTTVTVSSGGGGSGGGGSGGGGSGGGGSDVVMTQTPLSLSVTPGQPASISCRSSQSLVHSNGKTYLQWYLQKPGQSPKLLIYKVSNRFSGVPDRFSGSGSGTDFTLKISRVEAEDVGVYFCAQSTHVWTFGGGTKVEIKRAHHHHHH | 0.05
Comparative antibody 2 (Comp-2) scFv, 243LO326 (VH SEQ ID NO: 51 and VL SEQ ID NO: 52 of WO 2022/195028 A2), His-tagged (scFv) scFv: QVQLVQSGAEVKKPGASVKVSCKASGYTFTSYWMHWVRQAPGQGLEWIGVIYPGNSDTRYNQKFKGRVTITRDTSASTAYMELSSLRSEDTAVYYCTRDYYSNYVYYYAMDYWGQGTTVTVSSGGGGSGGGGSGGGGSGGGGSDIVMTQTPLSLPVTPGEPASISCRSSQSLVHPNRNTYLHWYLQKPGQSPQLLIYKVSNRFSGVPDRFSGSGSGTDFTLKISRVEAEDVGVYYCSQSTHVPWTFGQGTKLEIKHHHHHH | 0.03
Comparative antibody 1 (Comp-1) scFv, SEQ ID NO: 10 from WO2023/037125 A1, His-tagged (scFv) scFv: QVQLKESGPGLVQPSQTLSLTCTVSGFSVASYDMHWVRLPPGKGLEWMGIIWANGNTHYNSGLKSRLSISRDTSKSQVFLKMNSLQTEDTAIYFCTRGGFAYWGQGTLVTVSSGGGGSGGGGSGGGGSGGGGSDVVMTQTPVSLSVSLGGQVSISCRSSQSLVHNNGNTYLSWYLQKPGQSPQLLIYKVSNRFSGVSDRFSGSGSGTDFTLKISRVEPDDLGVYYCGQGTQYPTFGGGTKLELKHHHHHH | 0.03

Ask: So what does the record say about OD450 for Comparative antibody 3 (Comp-3) scFv, SR_92R (Somovilla-Crespo et al. 2018), His-tagged (scFv) scFv: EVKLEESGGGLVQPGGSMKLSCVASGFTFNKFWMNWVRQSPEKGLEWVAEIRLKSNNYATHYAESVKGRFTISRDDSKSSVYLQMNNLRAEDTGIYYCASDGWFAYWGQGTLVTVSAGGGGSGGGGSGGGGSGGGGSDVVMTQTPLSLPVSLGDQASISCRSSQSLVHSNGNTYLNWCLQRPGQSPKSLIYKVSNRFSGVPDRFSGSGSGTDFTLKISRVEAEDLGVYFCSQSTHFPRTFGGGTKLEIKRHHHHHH ?
Result: 0.03
